Measured values drawn from ChEMBL document CHEMBL3414423 for this set.

In this section we review reported selectivity ratio values for a set of molecules.
# PROTOCOL DETAILS: Selectivity index, ratio of CC50 for African green monkey Vero cells to EC50 for Sindbis virus HRsp infected in African green monkey Vero cells
# Type: toxicity, cell-based
# TEST SETTINGS: read-out: Ratio CC50/EC50
READOUT TYPE: selectivity ratio

- C=C1[C@H](OC(C)=O)[C@H]2[C@@H](OC(=O)c3ccccc3)[C@@H](C)C[C@]2(O)[C@H](O)[C@H](C)/C=C/C(C)(C)C(=O)[C@H](OC(=O)C(C)C)[C@H]1OC(C)=O: 2.1
- C=C1[C@H](OC(C)=O)[C@H]2[C@@H](OC(C)=O)[C@](C)(O)C[C@]2(OC(C)=O)C(=O)[C@H](C)/C=C/C(C)(C)C(=O)[C@H](OC(=O)/C(C)=C/C)[C@H]1OC(C)=O: 3.6
- C=C1[C@H](OC(C)=O)[C@H]2[C@@H](OC(=O)c3ccccc3)[C@@H](C)C[C@]2(O)[C@H](O)[C@H](C)/C=C/C(C)(C)C(=O)[C@H](OC(C)=O)[C@H]1OC(C)=O: 5

----------
# PROTOCOL DETAILS: Selectivity index, ratio of CC50 for African green monkey Vero cells to EC50 for Chikungunya virus 899 infected in African green monkey Vero cells
# Assay type: toxicity, cell-based
# TEST SETTINGS: read-out: Ratio CC50/EC50
READOUT TYPE: selectivity ratio

• C=C1[C@H](OC(C)=O)[C@H]2[C@@H](OC(=O)c3ccccc3)[C@@H](C)C[C@]2(O)[C@H](OC(C)=O)[C@H](C)/C=C/C(C)(C)C(=O)[C@H](O)[C@H]1OC(C)=O = 1.9
• C=C1[C@H](OC(C)=O)[C@H]2[C@@H](OC(C)=O)[C@](C)(O)C[C@]2(OC(C)=O)C(=O)[C@H](C)/C=C/C(C)(C)C(=O)[C@H](OC(=O)/C(C)=C/C)[C@H]1OC(C)=O = 208

----------
# PROTOCOL DETAILS: Cytotoxicity against human MT4 cells assessed as inhibition of overall cell metabolism after 5 days by MTT assay
# Format: ADME, cell-based
Listed compounds paired with reported CC50 at 120 h
READOUT TYPE: CC50 at 120 h

• C=C1[C@H](OC(C)=O)[C@H]2[C@@H](OC(C)=O)[C@](C)(OC(C)=O)C[C@]2(OC(C)=O)C(=O)[C@H](C)/C=C/C(C)(C)C(=O)[C@H](OC(=O)/C(C)=C/C)[C@H]1OC(C)=O = > 35 µM
• C=C1[C@H](OC(C)=O)[C@H]2[C@@H](OC(=O)c3ccccc3)[C@@H](C)C[C@]2(O)[C@H](O)[C@H](C)/C=C/C(C)(C)C(=O)[C@H](OC(=O)C(C)CC)[C@H]1OC(C)=O (stereo partly specified) = > 33 µM
• Cc1cn([C@H]2C[C@H](N=[N+]=[N-])[C@@H](CO)O2)c(=O)[nH]c1=O [ZIDOVUDINE] = > 25 µM
• C=C1[C@H](OC(C)=O)[C@H]2[C@@H](OC(C)=O)[C@](C)(O)C[C@]2(OC(C)=O)C(=O)[C@H](C)/C=C/C(C)(C)C(=O)[C@H](OC(=O)/C(C)=C/C)[C@H]1OC(C)=O = > 32 µM
• C=C1[C@H](OC(C)=O)[C@H]2[C@@H](OC(=O)c3ccccc3)[C@@H](C)C[C@]2(O)[C@H](OC(C)=O)[C@H](C)/C=C/C(C)(C)C(=O)[C@H](O)[C@H]1OC(C)=O = > 31 µM
• C=C1[C@H](OC(C)=O)[C@H]2[C@@H](OC(=O)c3ccccc3)[C@@H](C)C[C@]2(O)[C@H](O)[C@H](C)/C=C/C(C)(C)C(=O)[C@H](OC(C)=O)[C@H]1OC(C)=O = > 31 µM
• C=C1[C@H](OC(C)=O)[C@H]2[C@@H](OC(C)=O)[C@](C)(OC(C)=O)C[C@]2(OC(C)=O)C(=O)[C@H](C)/C=C/C(C)(C)C(=O)[C@H](OC(=O)c2ccccc2)[C@H]1OC(C)=O = > 36 µM
• O=c1[nH]cnc2c1ncn2[C@H]1CC[C@@H](CO)O1 [DIDANOSINE] = > 50 µM
• C=C1[C@H](OC(C)=O)[C@H]2[C@@H](OC(C)=O)[C@](C)(OC(C)=O)C[C@]2(OC(C)=O)C(=O)[C@H](C)/C=C/C(C)(C)C(=O)[C@H](OC(C)=O)[C@H]1OC(C)=O = > 33 µM
• C=C1[C@H](OC(C)=O)[C@H]2[C@@H](OC(=O)c3ccccc3)[C@@H](C)C[C@]2(O)[C@H](O)[C@H](C)/C=C/C(C)(C)C(=O)[C@H](OC(=O)C(C)C)[C@H]1OC(C)=O = > 16 µM
• Nc1ccn([C@@H]2CS[C@H](CO)O2)c(=O)n1 [LAMIVUDINE] = > 87 µM

----------
# reported CC50; entries follow
# PROTOCOL DETAILS: Cytotoxicity against African green monkey Vero cells assessed as inhibition of overall cell metabolism after 6 to 7 days by MTS assay
# Format: ADME, cell-based
# TEST SETTINGS: chlorocebus sabaeus
READOUT TYPE: CC50 (µM)

• C=C1[C@H](OC(C)=O)[C@H]2[C@@H](OC(=O)c3ccccc3)[C@@H](C)C[C@]2(O)[C@H](OC(C)=O)[C@H](C)/C=C/C(C)(C)C(=O)[C@H](O)[C@H]1OC(C)=O = 150
• C=C1[C@H](OC(C)=O)[C@H]2[C@@H](OC(=O)c3ccccc3)[C@@H](C)C[C@]2(O)[C@H](O)[C@H](C)/C=C/C(C)(C)C(=O)[C@H](OC(C)=O)[C@H]1OC(C)=O = 151
• C=C1[C@H](OC(C)=O)[C@H]2[C@@H](OC(C)=O)[C@](C)(OC(C)=O)C[C@]2(OC(C)=O)C(=O)[C@H](C)/C=C/C(C)(C)C(=O)[C@H](OC(=O)/C(C)=C/C)[C@H]1OC(C)=O = 145
• C=C1[C@H](OC(C)=O)[C@H]2[C@@H](OC(=O)c3ccccc3)[C@@H](C)C[C@]2(O)[C@H](O)[C@H](C)/C=C/C(C)(C)C(=O)[C@H](OC(=O)C(C)C)[C@H]1OC(C)=O = 60
• C=C1[C@H](OC(C)=O)[C@H]2[C@@H](OC(C)=O)[C@](C)(O)C[C@]2(OC(C)=O)C(=O)[C@H](C)/C=C/C(C)(C)C(=O)[C@H](OC(=O)c2ccccc2)[C@H]1OC(C)=O = 125
• C=C1[C@H](OC(C)=O)[C@H]2[C@@H](OC(C)=O)[C@](C)(O)C[C@]2(OC(C)=O)C(=O)[C@H](C)/C=C/C(C)(C)C(=O)[C@H](OC(=O)/C(C)=C/C)[C@H]1OC(C)=O = 159

----------
# Tested on: Human immunodeficiency virus 2
# PROTOCOL DETAILS: Antiviral activity against Human immunodeficiency virus type 2 ROD infected in human MT4 cells assessed as inhibition of virus replication after 5 days by MTT assay
# Format: functional, organism-based
# TEST SETTINGS: Human immunodeficiency virus 2, ISOLATE ROD, MT4, 120 h
// IC50 lookup, one value per entry
READOUT TYPE: IC50 (µM)

* C=C1[C@H](OC(C)=O)[C@H]2[C@@H](OC(C)=O)[C@](C)(O)C[C@]2(OC(C)=O)C(=O)[C@H](C)/C=C/C(C)(C)C(=O)[C@H](OC(=O)c2ccccc2)[C@H]1OC(C)=O | 10.9
* C=C1[C@H](OC(C)=O)[C@H]2[C@@H](OC(C)=O)[C@](C)(OC(C)=O)C[C@]2(OC(C)=O)C(=O)[C@H](C)/C=C/C(C)(C)C(=O)[C@H](OC(=O)/C(C)=C/C)[C@H]1OC(C)=O | 2
* Cc1cn([C@H]2C[C@H](N=[N+]=[N-])[C@@H](CO)O2)c(=O)[nH]c1=O [ZIDOVUDINE] | 0.006
* C=C1[C@H](OC(C)=O)[C@H]2[C@@H](OC(=O)c3ccccc3)[C@@H](C)C[C@]2(O)[C@H](O)[C@H](C)/C=C/C(C)(C)C(=O)[C@H](OC(C)=O)[C@H]1OC(C)=O | 5.2
* C=C1[C@H](OC(C)=O)[C@H]2[C@@H](OC(=O)c3ccccc3)[C@@H](C)C[C@]2(O)[C@H](OC(C)=O)[C@H](C)/C=C/C(C)(C)C(=O)[C@H](O)[C@H]1OC(C)=O | 32.5
* O=c1[nH]cnc2c1ncn2[C@H]1CC[C@@H](CO)O1 [DIDANOSINE] | 9.6
* C=C1[C@H](OC(C)=O)[C@H]2[C@@H](OC(C)=O)[C@](C)(O)C[C@]2(OC(C)=O)C(=O)[C@H](C)/C=C/C(C)(C)C(=O)[C@H](OC(=O)/C(C)=C/C)[C@H]1OC(C)=O | 0.043
* C=C1[C@H](OC(C)=O)[C@H]2[C@@H](OC(C)=O)[C@](C)(OC(C)=O)C[C@]2(OC(C)=O)C(=O)[C@H](C)/C=C/C(C)(C)C(=O)[C@H](OC(C)=O)[C@H]1OC(C)=O | 5.9
* C=C1[C@H](OC(C)=O)[C@H]2[C@@H](OC(C)=O)[C@](C)(OC(C)=O)C[C@]2(OC(C)=O)C(=O)[C@H](C)/C=C/C(C)(C)C(=O)[C@H](OC(=O)c2ccccc2)[C@H]1OC(C)=O | 34.7
